The origin of these recorded values is ChEMBL document CHEMBL1145357.

IC50 listing for selected compounds.
assay: Inhibition of invasion of mouse 26-L5 cells; type: functional
result-type: IC50

• Cc1c(O)c(CCC(C)C)c2c(c1O)C(=O)c1cccc(O)c1C2=O = 0.21 µM
• CCCCc1c(O)c(C)c(O)c2c1C(=O)c1c(O)cccc1C2=O = 0.92 µM
